Ref: patent US6251903A

biological target: NMDA receptor glycine sites; assay: electrophysiological assay, cloned rat NMDA receptors expressed in Xenopus oocytes; conditions: Table II; from electrophysiology using Xenopus oocytes
Ki values, listed per item

COMPOUND	Ki
O=c1[nH]c2cc3ccccc3cc2[nH]c1=O [H CH=CHCH=CH H, 1,4-dihydrobenzo[g]quinoxaline-2,3-dione]	11000 nM
Cc1c(F)cc2[nH]c(=O)c(=O)[nH]c2c1[N+](=O)[O-] [NO2 Me F H]	53 nM
O=c1[nH]c2cc3c(cc2[nH]c1=O)CCC3 [H CH2 CH2 CH2 H]	6300 nM
N#Cc1c(Cl)c(Cl)cc2[nH]c(=O)c(=O)[nH]c12 [CN Cl Cl H]	15 nM
N#Cc1c(Cl)c([N+](=O)[O-])cc2[nH]c(=O)c(=O)[nH]c12 [CN Cl NO2 H]	50 nM

====

target: glycine binding site of the NMDA receptor (Rattus norvegicus, UniProt P35439); construct: rat brain membrane homogenates that are enriched in NMDA receptors; tissue Pel-Freez, Rogers, Arkansas (frozen rat brains); host or cells: rat brain membrane homogenate; experiment: 1 μM glycine-stimulated [3H]-MK801 binding assay, brain membrane homogenates
QUANTITY_MEASURED: log10 Ki (log10 of the value in nM)

CPD_SMILES	log10 Ki
CCCCOc1c(F)cc2nc(O)c(O)nc2c1[N+](=O)[O-]	3.81
CCc1cc2nc(O)c(O)nc2c([N+](=O)[O-])c1Cl	1.60
CCc1cc2[nH]c(=O)c(=O)[nH]c2cc1Cl	2.86
Cc1c(Cl)cc2nc(O)c(O)nc2c1N	2.70
CCc1cc2[nH]c(=O)c(=O)[nH]c2cc1CC	2.90
O=[N+]([O-])c1c(OCCCc2ccccc2)c(F)cc2nc(O)c(O)nc12	3.83
CCc1c(Cl)cc2nc(O)c(O)nc2c1[N+](=O)[O-]	2.30
COc1c(Cl)cc2[nH]c(=O)c(=O)[nH]c2c1[N+](=O)[O-]	2.65
Cc1c(Br)cc2nc(O)c(O)nc2c1[N+](=O)[O-]	1.60
Cc1c([N+](=O)[O-])c([N+](=O)[O-])c(Cl)c2[nH]c(=O)c(=O)[nH]c12	3.58

====

tested on: mice; experiment: anticonvulsant activity in maximum electroshock seizure (MES) experiments in mice; type: in vivo, male Swiss/Webster mice; conditions: Mus musculus, iv; Table III; i.v. injection; read-out: ED50 (MES)
Label Criterion met when ED50 < 4 mg/kg; otherwise Criterion not met.

MOLECULE	GROUP_LABEL
O=c1[nH]c2cc(F)c(Br)c([N+](=O)[O-])c2[nH]c1=O [NO2 Br F H]	Criterion met
O=c1[nH]c2cc(F)c(F)cc2[nH]c1=O [H F F H]	Criterion not met
O=c1[nH]c2cc(Cl)c(F)c([N+](=O)[O-])c2[nH]c1=O [NO2 F Cl H]	Criterion met
[N-]=[N+]=Nc1c(F)cc2[nH]c(=O)c(=O)[nH]c2c1[N+](=O)[O-] [NO2 N3 F H]	Criterion not met
Oc1nc2cc(F)c(Cl)c(F)c2nc1O [F Cl F H]	Criterion not met

====

# log10 of Ki per entry
target: glycine binding site (Rattus norvegicus); experiment: affinity for the glycine binding site / glycine/NMDA receptor (Ki; method not stated); settings: Table I; read-out: Ki
QUANTITY_MEASURED: log10 of Ki (log10 of the value in µM)

COMPOUND	log10 of Ki
O=[N+]([O-])c1ccc2nc(O)c(O)nc2c1 [NO2, reference compound]	0.14
Oc1nc2ccccc2nc1O [H, reference compound]	0.39
O=c1[nH]c2ccc(C(F)(F)F)cc2[nH]c1=O [CF3, reference compound]	-0.44
[N-]=[N+]=Nc1ccc2[nH]c(=O)c(=O)[nH]c2c1	-0.68
O=c1[nH]c2ccc(F)cc2[nH]c1=O [F, reference compound]	0.46
N#Cc1ccc2nc(O)c(O)nc2c1 [CN, reference compound]	0.69
